tested on: MEF; assay: Cytotoxicity against mouse MEF cells assessed as reduction in cell viability incubated for 3 days by methylene blue staining based spectrophotometric analysis; type: toxicity; settings: 72 h, time 3 day
MEASURED_ENDPOINT: CC50

Query string: // Input: COC(=O)c1ccc([C@H]2c3[nH]c4ccccc4c3C[C@H](C(=O)OC)N2C(=O)CCl)cc1 . Output its CC50 only.
Result string: 40 nM

----------
Task for the reader: assign each of the following compounds its reported CC50.
system: NCI-H522; test: Cytotoxicity against human NCI-H522 cells assessed as reduction in cell viability incubated for 3 days by methylene blue staining based spectrophotometric analysis; type: functional; details: NCI-H522, 72 h, time 3 day
Give bare numbers, in µM.

>  <COMPOUND>
C#Cc1nc(C2=C(C)C(OC(=O)C(C)(C)C)/C(=N\OC(=O)C(C)(C)C)C2)cs1 (stereo not drawn)

>  <CC50, µM>
0.411

$$$$

Value sought for every listed compound: CC50.
1. C#CCCC(=O)Nc1ccc(C(=O)c2ccc(NC(=O)CO/N=C3\CC(c4csc(C#C)n4)=C(C)C3O)cc2)cc1 (stereo not drawn)
2. C#Cc1nc(C2=C(C)C(NC(=O)c3cc4ccc(N(CC)CC)cc4oc3=O)CC2)cs1 (stereo not drawn)
3. C#Cc1nc(C2=C(C)C(OC(=O)c3ccccc3)/C(=N\OC(=O)c3ccccc3)C2)cs1 (stereo not drawn)

Result string:
2.6
4.56
0.55
